meta.source: ChEMBL document CHEMBL2331489

# system-name: Cyclin-dependent kinase 5/CDK5 activator 1 (Homo sapiens) (UniProt Q00535+Q15078)
# Sequence (Q00535 whole entry): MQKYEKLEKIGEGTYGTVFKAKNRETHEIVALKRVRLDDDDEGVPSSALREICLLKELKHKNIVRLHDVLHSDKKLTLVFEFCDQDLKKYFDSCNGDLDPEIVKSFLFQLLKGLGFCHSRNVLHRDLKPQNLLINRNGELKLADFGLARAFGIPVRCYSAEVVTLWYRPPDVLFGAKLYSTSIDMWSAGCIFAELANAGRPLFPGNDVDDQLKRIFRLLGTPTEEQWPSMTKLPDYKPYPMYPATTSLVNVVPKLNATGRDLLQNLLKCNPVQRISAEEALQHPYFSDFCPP
# Sequence (Q15078 99-307 partner limits assumed): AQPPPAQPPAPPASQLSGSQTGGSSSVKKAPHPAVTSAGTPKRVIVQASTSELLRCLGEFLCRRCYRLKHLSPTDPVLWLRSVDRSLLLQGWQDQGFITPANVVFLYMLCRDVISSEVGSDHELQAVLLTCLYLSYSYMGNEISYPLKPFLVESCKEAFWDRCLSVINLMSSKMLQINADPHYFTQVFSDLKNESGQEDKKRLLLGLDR
# assay-overview: Inhibition of CDK5/P25 (unknown origin) at 10 uM relative to control
# Format: protein-complex assay
I would appreciate it if you labelled entries t when inhibition is 30% or higher, otherwise f.

See these solved cases before continuing.
stdin: Please tell me: is the compound `CC(C)Nc1c(C(N)=O)nnc2ccc(-c3cn[nH]c3)cc12` at or over 30% in terms of inhibition?
stdout: t

stdin: Please tell me: is the compound `CC(C)Nc1c(C(N)=O)nnc2cc(-c3ccncc3)ccc12` at or over 30% in terms of inhibition?
stdout: t

stdin: Please tell me: is the compound `CC(C)Nc1c(C(N)=O)nnc2cc(N3CCOCC3)ccc12` at or over 30% in terms of inhibition?
stdout: f

stdin: Please tell me: is the compound `CS(=O)(=O)c1ccc(-c2ccc3c(NC4CCC4)c(C(N)=O)nnc3c2)cc1` at or over 30% in terms of inhibition?
stdout: f

stdin: Please tell me: is the compound `CC(C)Nc1c(C(N)=O)cnc2cc(-c3ccc(S(C)(=O)=O)cc3)ccc12` at or over 30% in terms of inhibition?
stdout: f

Further cases:
stdin: Please tell me: is the compound `CC(C)Nc1c(C(N)=O)nnc2ccc(-c3ccncc3)cc12` at or over 30% in terms of inhibition?
stdout: t
